method.notes: NCI Yeast Anticancer Drug Screen. Data for the bub3 strain (AID 167)
condition.parameters: S. cerevisiae bub3 mutant strain, at 50.0 µM, active compounds read high
About 79,000 compounds went through this panel and 15% of them were active in at least one assay; those are over-represented in the sample as a whole.
Listed here are compounds together with their documented growth inhibition.

{"columns": ["compound", "growth inhibition / %"],
 "data": [
  ["COC1CC(OC2OC(CO)C(O)C(O)C2O)/C(=C\\C#N)C(O)C1OC (centres undefined)", 2.35],
  ["COc1cc(N(CC(C)Br)CC(C)Br)ccc1N=Nc1ccccc1C(=O)O (centres undefined)", 32.9],
  ["O=C(CC(=O)C(F)(F)F)c1cccs1.O=C(CC(=O)C(F)(F)F)c1cccs1.O=C(CC(=O)C(F)(F)F)c1cccs1.[Eu]", 39],
  ["C/C=C/C=C\\C=C/C(O)CC(OP(=O)(O)O)C(C)(O)/C=C/C1CC=CC(=O)O1 (centres undefined)", -3.35]
]}

----------
Catalogue of growth inhibition readings, one per entry.
method.notes: NCI Yeast Anticancer Drug Screen. Data for the sgs1 mgt1 strain (AID 161);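 note: 0% = growth of cultures given vehicle only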
condition.parameters: S. cerevisiae sgs1 mgt1 strain, at 50.0 µM, active compounds read high
The panel holds about 79,000 compounds, 15% with a hit somewhere; the sample as a whole holds those more often.

{"columns": ["molecule", "growth inhibition / %"],
 "data": [
  ["CCNC(Cc1ccccc1)c1ccco1 (stereo not drawn)", -15.5],
  ["C/C=C(\\CC)C1(C)C(=O)NC(=O)NC1=O", -5.7],
  ["COc1ccc(/C=C\\c2cc(OC)c(OC)c(OC)c2)cc1OC(=O)CCC(=O)O", 8.7]
]}

----------
method.notes: NCI Yeast Anticancer Drug Screen. Data for the cln2 rad14 strain (AID 165);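 note: 0% = growth equal to vehicle treated cultures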
condition.parameters: S. cerevisiae cln2 rad14 strain, at 50.0 µM (retest, dose inferred, filed as 5.0), active compounds read high
Compounds without any hit were thinned out: in the full panel of roughly 79,000, 15% have a hit.
Attribute: growth inhibition
readout.label: growth inhibition (%)

{"columns": ["molecular.string", "unit.info", "test.value"],
 "data": [
  ["N#C[S-].[Ce+3].c1cnc2c(c1)ccc1cccnc12.c1cnc2c(c1)ccc1cccnc12.c1cnc2c(c1)ccc1cccnc12", "%", 98],
  ["CC(=O)O[C@H]1CC[C@@]2(C)C(=CC[C@@H]3[C@@H]2CC[C@]2(C)C(=O)[C@@H](CN4CC4)C[C@@H]32)C1", "%", 75],
  ["C/C(=C\\c1ccccc1)[N+](=O)[O-]", "%", 97]
]}

----------
method.notes: NCI Yeast Anticancer Drug Screen. Data for the sgs1 mgt1 strain (AID 161);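 note: 0% = growth of cultures given vehicle only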
condition.parameters: S. cerevisiae sgs1 mgt1 strain, at 5.0 µM (retest, dose inferred, filed as 0.5)
The panel holds about 79,000 compounds, 15% with a hit somewhere; the sample as a whole holds those more often. The source made the active and inactive calls. No stated cut-off is given here; in the data, active means growth inhibition above about 70%; inactive means the rest.
Outcomes: class 1 (active), class 0 (inactive)

{"columns": ["molecular.string", "class.label"],
 "data": [
  ["O=[N+]([O-])c1ccc([N+](=O)[O-])c2ccccc12", "class 0"],
  ["C[C@@H]1C[C@H]2CC[C@H](O2)[C@H](C)C(=O)O[C@@H](C)C[C@@H]2CC[C@@H](O2)[C@@H](C)C(=O)O[C@H](C)C[C@H]2CC[C@H](O2)[C@H](C)C(=O)O[C@@H](C)C[C@@H]2CC[C@@H](O2)[C@@H](C)C(=O)O1", "class 1"],
  ["CC(C)c1cc([N+](=O)[O-])cc([N+](=O)[O-])c1O", "class 0"],
  ["COc1ccc(/C=C\\[N+](=O)[O-])cc1OC", "class 0"],
  ["[C-]#[O+].[C-]#[O+].[C-]#[O+].[C-]#[O+].[Mo].c1cnc2c(c1)ccc1cccnc12", "class 0"]
]}

----------
method.notes: NCI Yeast Anticancer Drug Screen. Data for the mlh1 rad18 strain (AID 175)
condition.parameters: S. cerevisiae mlh1 rad18 strain growth inhibition; at 5.0 µM (retest, dose inferred, filed as 0.5); active compounds read high
Compounds without any hit were thinned out: in the full panel of roughly 79,000, 15% have a hit.
Form field: growth inhibition (one value per entry).

{"columns": ["compound", "unit.info", "growth inhibition"],
 "data": [
  ["CCC[CH2][Sn]1([CH2]CCC)[O]CC(Cc2ccccc2)[O]1 (stereo not given)", "%", 39],
  ["O=C(O)c1ccccc1.[Zn+2]", "%", 6],
  ["O=C(CBr)Nc1ccccc1", "%", 48],
  ["COC(=O)C1=C(C(=O)OC)C2(OC(C)=O)c3ccccc3-c3ccccc3C12 (stereo not given)", "%", 73],
  ["C1CCC(NCC2CCCO2)CC1 (stereo not given)", "%", -4],
  ["C1OCC2[CH2][Hg][S][Hg][CH2]C1O2", "%", 36],
  ["CC1(C)C2CCC([CH2][Hg][Cl])C1C2 (stereo not given)", "%", 100],
  ["CCC[CH2][Sn]([CH2]CCC)([CH2]CCC)[O]C(=O)C(OC)c1ccccc1 (stereo not given)", "%", 100],
  ["CCCCCCCCCCCCCCCCOC[C@@H](COC(c1ccccc1)(c1ccccc1)c1ccccc1)O[P+](=S)OC (stereo not given in full)", "%", 22],
  ["C#CC[As+](c1ccccc1)(c1ccccc1)c1ccccc1", "%", 45],
  ["COC(=O)[C@]1(C)CCC[C@]2(C)[C@H]3CC4OO[C@@]3(CC[C@H]21)[C@H]1O[C@@]41C(C)C", "%", 98],
  ["CC(=O)[O][Sn]([CH3])([CH3])[c]1ccccc1", "%", 3],
  ["O=C(Oc1ccc(S(=O)(=O)F)cc1F)c1ccccc1Cl", "%", 21],
  ["S=C=[N][Sn]([N]=C=S)([c]1ccccc1)[c]1ccccc1.c1ccc2nc(-c3ccc4ccccc4n3)ccc2c1", "%", 77],
  ["CC(=O)c1cc2c(cc1O)C(C)(C)CCC2(C)C", "%", -2],
  ["COc1ccc(Br)c(/C=C/[N+](=O)[O-])c1", "%", 6],
  ["COc1ccc2c(c1)CCC(N1CCCC(=O)C1)C2 (stereo not given)", "%", 9],
  ["CN(C=O)C(=S)[S][Sb]([S]C(=S)N(C)C=O)[S]c1nc2ccc(N=Nc3ccc(NS(=O)(=O)c4ccc(NC(=O)C(N5CC5)(N5CC5)N5CC5)cc4)cc3)cc2s1", "%", 0],
  ["O=C([CH-]C(=O)c1ccccc1)c1ccccc1.O=C([CH-]C(=O)c1ccccc1)c1ccccc1.O=C([CH-]C(=O)c1ccccc1)c1ccccc1.[Cl-].[Zr+4]", "%", 29],
  ["C#CC(O)(CC)CC", "%", -1],
  ["COc1cc(/C=C/[N+](=O)[O-])c(OC)cc1Br", "%", 38],
  ["CCCCCCCCCCCCCC(=O)O[C@H]1CC[C@H](NC(=O)[C@H](OC)[C@H](O)[C@@H](O)[C@H](O)/C=C/C(C)C)C(=O)NC1", "%", -1],
  ["CC(C)(C)S.[Hg]", "%", 75],
  ["CC[n+]1c(/C=C/c2ccc(N(CCCl)CCCl)cc2)ccc2cc(Br)ccc21", "%", 96],
  ["Nc1ccc(C(=O)O)c(C(=O)O)c1.[Cl][Sn]([Cl])([Cl])[Cl]", "%", -3]
]}

----------
method.notes: NCI Yeast Anticancer Drug Screen. Data for the bub3 strain (AID 167)
condition.parameters: S. cerevisiae bub3 mutant strain, at 50.0 µM
This is part of a sample that, as a whole, favours compounds with a hit. Of some 79,000 tested, about 15% had one in any assay. Activity calls are given as the source filed them. No stated cut-off is given here; in the data, active means growth inhibition above about 70%; inactive means the rest.
Labels: YES for active, NO for inactive

{"columns": ["compound", "class.label"],
 "data": [
  ["C=CCOC(N)=O", "NO"],
  ["[Br][Hg][CH]1CCC2CCCC1O2 (centres undefined)", "YES"],
  ["COCCCNCCCN1CC1", "NO"],
  ["O=P1(c2ccccc2)NC2CCCCC2N1 (centres undefined)", "NO"]
]}

----------
method.notes: NCI Yeast Anticancer Drug Screen. Data for the rad50 strain (AID 155);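 note: 0% = growth of vehicle-only cultures of the same strain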
condition.parameters: S. cerevisiae rad50 strain growth inhibition; at 50.0 µM
This is part of a sample that, as a whole, favours compounds with a hit. Of some 79,000 tested, about 15% had one in any assay. Active and inactive are the calls of the source. Rule as the data show it: active = growth inhibition above about 70%; inactive = the rest.
Outcomes: active, inactive

{"columns": ["molecule", "class.label"],
 "data": [
  ["O=[N+]([O-])c1ccc([Se]c2ncccn2)c([N+](=O)[O-])c1", "inactive"],
  ["CNC(P(=O)([O-])[O-])P(=O)([O-])[O-].N.N.[Pt+2]", "inactive"],
  ["O=C(CF)NCCCl", "inactive"],
  ["O=c1[nH]c(=S)[nH]c(O)c1/C=C1\\C=CC=N1", "inactive"],
  ["O=C(CCN1CC2CCC(CC2)C1)c1cccs1", "inactive"],
  ["COc1ccccc1CC(C)NC(C)Cc1ccccc1OC (centres undefined)", "inactive"],
  ["NC(CNC(=O)CBr)C(=O)O (centres undefined)", "inactive"],
  ["C(#CCN1CCCCCC1)CN1CCCCCC1", "inactive"],
  ["CCOC(=O)C1C(=O)C(=O)N2CCc3c([nH]c4ccccc34)C12 (centres undefined)", "inactive"],
  ["ClC(CN1CCCCC1)C(Cl)c1ccccc1 (centres undefined)", "inactive"],
  ["NS(=O)(=O)c1ccc([As](=O)(O)c2ccccc2)cc1", "inactive"],
  ["[C-]#[O+].[C-]#[O+].[CH3][Sn]([CH3])[c]1ccccc1.[Fe+5].[c-]1[c-][c-][cH-][c-]1", "active"],
  ["O=C1C=C(N2CC2)C(=O)C(N2CC2)=C1N1CC1", "active"],
  ["O=P(O)(O)SP(=O)(O)O.[Co]", "inactive"],
  ["CC1c2[nH]c3ccccc3c2CCN1C (centres undefined)", "inactive"],
  ["CC(=O)[O][Pb]([CH3])([CH3])[CH3]", "inactive"],
  ["COC(=O)c1ccc(C=C(C#N)C#N)cc1", "inactive"],
  ["CC(C)C1CN1CC(O)Cn1ccnc1[N+](=O)[O-] (centres undefined)", "inactive"],
  ["COc1ccc2c(c1)C(=O)C(N)C2 (centres undefined)", "inactive"],
  ["COc1ccc(N=NC(=O)NC(CC(C)C)C(=O)NCC(=O)O)cc1 (centres undefined)", "inactive"],
  ["O=[N+]([O-])/C=C/c1cccc(F)c1", "active"],
  ["O.O=S(=O)(O)O.[Co+3].[NH2-].[NH2-].[NH2-].[NH2-].[OH-]", "inactive"],
  ["COc1ccc(NC(=O)C(=O)C(CC2C(=O)NC(=S)NC2=O)C(=O)c2ccc3ccccc3c2)c([N+](=O)[O-])c1 (centres undefined)", "inactive"],
  ["CCN(CCCl)c1cc(CN(C)C)cc(NC(=O)c2ccc(C(=O)Nc3ccccc3)cc2)c1", "inactive"]
]}
